Measured values drawn from paper PMC3175028 for this set.

Molecular target: hedKR (Streptomyces griseoruber, UniProt Q67G28)
measured-quantity: Ki

Entry O=c1c(O)c(-c2ccc(O)c(O)c2)oc2cc(O)cc(O)c12 : reported Ki = ? ~114 µM
